Measured normalized RNA/DNA level without ligand (log10), listed per entry.
B1: library; a variant is named by its letters at N, in order (parent)
chain: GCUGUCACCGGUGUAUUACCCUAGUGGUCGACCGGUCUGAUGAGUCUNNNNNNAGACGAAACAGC

Variants of: B1
Test: normalized RNA/DNA level without ligand (relative to sTRSVctl = 100) (log10 (% of sTRSVctl)); ligand: hypoxanthine (xanthine aptamer); higher = less ribozyme self-cleavage, higher mRNA level
Settings: HEK293T, reporter: mCherry (pCS4076), ligand present: no
endpoint: normalized RNA/DNA level without ligand (log10)

| mutation key | obs value |
| --- | --- |
| CAUGUG | 1.88 |
| UGCAAC | 1.83 |
| UGCUAU | 1.88 |
| UAACGG | 1.38 |
| UUUUAG | 1.76 |
| CAGAAU | 1.64 |
| UCCUUC | 1.89 |
| ACUUAU | 1.73 |
| CUGGGC | 1.9 |
| GGGCUU | 1.96 |
| CUUUUG | 1.89 |
| ACCUGA | 1.79 |
| UGGAUA | 1.84 |
| CGUCAU | 1.92 |
| AAUUUG | 1.57 |
| UGUAGG | 1.5 |
| GAGGUU | 1.86 |
| AAGGUA | 1.62 |
| GGGUGG | 1.54 |
| CCGCAA | 1.78 |
| UGUCCG | 1.8 |
| GGUUUA | 1.87 |
| GCUCUC | 1.89 |
| GAUACC | 1.87 |
| GUUUGU | 1.88 |
| UGCACG | 1.76 |
| GUUAUC | 1.86 |
| UCUGGA | 1.6 |
| UCGUGU | 1.33 |
| AGGAGC | 1.49 |
| CUGGCA | 1.88 |
| UAGAGU | 1.21 |
| GAGCUG | 1.31 |
| CGUGCC | 1.92 |
| CUACGA | 1.87 |
| CCGGGU | 1.93 |
| CGGUCG | 1.87 |
| CGAUUU | 1.85 |
| GCGUUC | 1.58 |
| CAGGUU | 1.86 |
| CACGGC | 1.87 |
| CGCGCU | 1.93 |
| ACUUGA | 1.72 |
| GCAAGU | 1.69 |
